# protocol details: qHTS assay to identify small molecules that stimulate interleukin-8 (IL-8) secretion (AID 651758)
# test conditions: HTRF ratio (665/615); series mostly up to 92.2 µM
Results filed as inconclusive are left out. Active and inactive are the calls of the source. The call rests on the fitted dose curve; in most records, active means well fitted activation curve with a large enough effect in the signal ratio; inconclusive means small, poorly fitted or top-dose-only effect, or effect the other way, or a change in a side signal; inactive means flat fitted curve, though single readings scatter; the % refers to the signal ratio.
Labels: True for active, False for inactive

>>> label("Oc1cccc(O)c1O")
"True"
>>> label("Cc1ncc[nH]1")
"False"
>>> label("Cc1ccc(S(=O)(=O)O)cc1C")
"False"
>>> label("CC1=CCC2CC1C2(C)C (stereo unspecified)")
"False"
>>> label("OCc1ccccc1")
"False"
>>> label("OC[C@H]1O[C@@H]2O[C@H]3[C@H](O)[C@@H](O)[C@@H](O[C@H]4[C@H](O)[C@@H](O)[C@@H](O[C@H]5[C@H](O)[C@@H](O)[C@@H](O[C@H]6[C@H](O)[C@@H](O)[C@@H](O[C@H]7[C@H](O)[C@@H](O)[C@@H](O[C@H]1[C@H](O)[C@H]2O)O[C@@H]7CO)O[C@@H]6CO)O[C@@H]5CO)O[C@@H]4CO)O[C@@H]3CO")
"False"
